Test system: 138582-337-R-J1-PDC spheroids with HUVEC/MSC, viability
TEST_DETAILS: Anticancer human tumor 138582-337-R-J1-PDC patient-derived Merkel cell tumor cell line growth inhibition [IpAb]
COND: second compound 0.1 µM; first compound 3.16 µM; stronger effect = lower value
ASSAY_METRIC: viability, T/C

COMPOUND	ASSAY_METRIC	RESULT
CC1(C)CCC(CN2CCN(c3ccc(C(=O)NS(=O)(=O)c4ccc(NCC5CCOCC5)c([N+](=O)[O-])c4)c(Oc4cnc5[nH]ccc5c4)c3)CC2)=C(c2ccc(Cl)cc2)C1 + CCN1CCN(Cc2ccc(Nc3ncc(F)c(-c4cc(F)c5nc(C)n(C(C)C)c5c4)n3)nc2)CC1	viability, T/C	86.4%

Then there is this compound:
Ask: Name the recorded viability, T/C for CCCS(=O)(=O)Nc1ccc(F)c(C(=O)c2c[nH]c3ncc(-c4ccc(Cl)cc4)cc23)c1F + CC(C)NCC(C(=O)N1CCN(c2ncnc3c2C(C)CC3O)CC1)c1ccc(Cl)cc1 .
Result: 102%

----------
System: 138582-337-R-J1-PDC spheroids with HUVEC/MSC, viability
TEST_DETAILS: Anticancer human tumor 138582-337-R-J1-PDC cell line growth inhibition [IpAb];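 note: spheroids exposed to compounds for seven days; 100% = DMSO vehicle control viability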
COND: second compound 1 µM; first compound 10 µM; stronger effect = lower value
ASSAY_METRIC: viability, T/C (%)
Give bare numbers, in %.

COMPOUND	UNIT_NAME	NUMERIC_RESULT
CC1(C)CCC(CN2CCN(c3ccc(C(=O)NS(=O)(=O)c4ccc(NCC5CCOCC5)c([N+](=O)[O-])c4)c(Oc4cnc5[nH]ccc5c4)c3)CC2)=C(c2ccc(Cl)cc2)C1 + CC(C)NCC(C(=O)N1CCN(c2ncnc3c2C(C)CC3O)CC1)c1ccc(Cl)cc1	%	63.8

Provide viability, T/C values for the following items, in order.
1. CCCS(=O)(=O)Nc1ccc(F)c(C(=O)c2c[nH]c3ncc(-c4ccc(Cl)cc4)cc23)c1F + CC(C)NCC(C(=O)N1CCN(c2ncnc3c2C(C)CC3O)CC1)c1ccc(Cl)cc1
2. CC1(C)CCC(CN2CCN(c3ccc(C(=O)NS(=O)(=O)c4ccc(NCC5CCOCC5)c([N+](=O)[O-])c4)c(Oc4cnc5[nH]ccc5c4)c3)CC2)=C(c2ccc(Cl)cc2)C1 + CCN1CCN(Cc2ccc(Nc3ncc(F)c(-c4cc(F)c5nc(C)n(C(C)C)c5c4)n3)nc2)CC1

Result:
1. 36
2. 109

I have 6 compounds here; please give me viability, T/C for each one.
1. Cn1ncc(Cl)c1-c1cc(C(=O)NC(CN)Cc2cccc(F)c2)sc1Cl (centres undefined) + CCN1CCN(Cc2ccc(Nc3ncc(F)c(-c4cc(F)c5nc(C)n(C(C)C)c5c4)n3)nc2)CC1
2. C=CCn1c(=O)c2cnc(Nc3ccc(N4CCN(C)CC4)cc3)nc2n1-c1cccc(C(C)(C)O)n1 + CC(C)NCC(C(=O)N1CCN(c2ncnc3c2C(C)CC3O)CC1)c1ccc(Cl)cc1
3. Cc1nc(NC(=O)N2CCCC2C(N)=O)sc1-c1ccnc(C(C)(C)C(F)(F)F)c1 (centres undefined) + CCN1CCN(Cc2ccc(Nc3ncc(F)c(-c4cc(F)c5nc(C)n(C(C)C)c5c4)n3)nc2)CC1
4. Cc1nc(NC(=O)N2CCCC2C(N)=O)sc1-c1ccnc(C(C)(C)C(F)(F)F)c1 (centres undefined) + CC(C)NCC(C(=O)N1CCN(c2ncnc3c2C(C)CC3O)CC1)c1ccc(Cl)cc1
5. C=CC(=O)N1CCN(c2nc(=O)n(-c3c(C)ccnc3C(C)C)c3nc(-c4c(O)cccc4F)c(F)cc23)C(C)C1 (centres undefined) + CCN1CCN(Cc2ccc(Nc3ncc(F)c(-c4cc(F)c5nc(C)n(C(C)C)c5c4)n3)nc2)CC1
6. C=CCn1c(=O)c2cnc(Nc3ccc(N4CCN(C)CC4)cc3)nc2n1-c1cccc(C(C)(C)O)n1 + CCN1CCN(Cc2ccc(Nc3ncc(F)c(-c4cc(F)c5nc(C)n(C(C)C)c5c4)n3)nc2)CC1

Result:
1. 0.27
2. 89.1
3. 1.63
4. 14.2
5. 282
6. 134

----------
Tested on: 138582-337-R-J1-PDC spheroids with HUVEC/MSC, viability
TEST_DETAILS: Anticancer human tumor 138582-337-R-J1-PDC cell line growth inhibition [IpAb]; active = viability on the fitted dose curve at most 10% of control; inactive = the rest;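 note: spheroids exposed to compounds for seven days; 100% = DMSO vehicle control viability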
COND: second compound 0.0316 µM; first compound 10 µM
Please answer using one outcome listed in active, inactive

COMPOUND	ASSAY_SYSTEM	ASSIGNED_CATEGORY
C=CCn1c(=O)c2cnc(Nc3ccc(N4CCN(C)CC4)cc3)nc2n1-c1cccc(C(C)(C)O)n1 + CCN1CCN(Cc2ccc(Nc3ncc(F)c(-c4cc(F)c5nc(C)n(C(C)C)c5c4)n3)nc2)CC1	138582-337-R-J1-PDC spheroids with HUVEC/MSC, viability	inactive
Cc1nc(NC(=O)N2CCCC2C(N)=O)sc1-c1ccnc(C(C)(C)C(F)(F)F)c1 (configuration not stated) + CCN1CCN(Cc2ccc(Nc3ncc(F)c(-c4cc(F)c5nc(C)n(C(C)C)c5c4)n3)nc2)CC1	138582-337-R-J1-PDC spheroids with HUVEC/MSC, viability	inactive
C=CC(=O)N1CCN(c2nc(=O)n(-c3c(C)ccnc3C(C)C)c3nc(-c4c(O)cccc4F)c(F)cc23)C(C)C1 (configuration not stated) + CCN1CCN(Cc2ccc(Nc3ncc(F)c(-c4cc(F)c5nc(C)n(C(C)C)c5c4)n3)nc2)CC1	138582-337-R-J1-PDC spheroids with HUVEC/MSC, viability	inactive
CC1(C)CCC(CN2CCN(c3ccc(C(=O)NS(=O)(=O)c4ccc(NCC5CCOCC5)c([N+](=O)[O-])c4)c(Oc4cnc5[nH]ccc5c4)c3)CC2)=C(c2ccc(Cl)cc2)C1 + CCN1CCN(Cc2ccc(Nc3ncc(F)c(-c4cc(F)c5nc(C)n(C(C)C)c5c4)n3)nc2)CC1	138582-337-R-J1-PDC spheroids with HUVEC/MSC, viability	inactive
Cn1ncc(Cl)c1-c1cc(C(=O)NC(CN)Cc2cccc(F)c2)sc1Cl (configuration not stated) + CCN1CCN(Cc2ccc(Nc3ncc(F)c(-c4cc(F)c5nc(C)n(C(C)C)c5c4)n3)nc2)CC1	138582-337-R-J1-PDC spheroids with HUVEC/MSC, viability	active

Ask: Any idea what this test logged for CCCS(=O)(=O)Nc1ccc(F)c(C(=O)c2c[nH]c3ncc(-c4ccc(Cl)cc4)cc23)c1F + CCN1CCN(Cc2ccc(Nc3ncc(F)c(-c4cc(F)c5nc(C)n(C(C)C)c5c4)n3)nc2)CC1 ?
Result: inactive

Ask: GET /call?item= Cn1nccc1Nc1nccc(-c2ccn(C(CO)c3ccc(Cl)c(F)c3)c(=O)c2)n1 (configuration not stated) + CCN1CCN(Cc2ccc(Nc3ncc(F)c(-c4cc(F)c5nc(C)n(C(C)C)c5c4)n3)nc2)CC1 returns the recorded outcome of this test.
Result: inactive

----------
Would you mind telling me the reported viability, T/C of each entry?
System: 138582-337-R-J1-PDC spheroids with HUVEC/MSC, viability
TEST_DETAILS: Anticancer human tumor 138582-337-R-J1-PDC cell line growth inhibition [IpAb];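 note: spheroids exposed to compounds for seven days; 100% = DMSO vehicle control viability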
COND: second compound 0.1 µM; first compound 3.16 µM; stronger effect = lower value
One number for each entry, in %.

Below: 4 compounds and their reported viability, T/C.
COMPOUND	ASSAY_SYSTEM	ASSAY_METRIC	NUMERIC_RESULT
Cc1nc(NC(=O)N2CCCC2C(N)=O)sc1-c1ccnc(C(C)(C)C(F)(F)F)c1 (stereo not given) + CC(C)NCC(C(=O)N1CCN(c2ncnc3c2C(C)CC3O)CC1)c1ccc(Cl)cc1	138582-337-R-J1-PDC spheroids with HUVEC/MSC, viability	viability, T/C	47.6
Cn1nccc1Nc1nccc(-c2ccn(C(CO)c3ccc(Cl)c(F)c3)c(=O)c2)n1 (stereo not given) + CCN1CCN(Cc2ccc(Nc3ncc(F)c(-c4cc(F)c5nc(C)n(C(C)C)c5c4)n3)nc2)CC1	138582-337-R-J1-PDC spheroids with HUVEC/MSC, viability	viability, T/C	108
Cn1ncc(Cl)c1-c1cc(C(=O)NC(CN)Cc2cccc(F)c2)sc1Cl (stereo not given) + CC(C)NCC(C(=O)N1CCN(c2ncnc3c2C(C)CC3O)CC1)c1ccc(Cl)cc1	138582-337-R-J1-PDC spheroids with HUVEC/MSC, viability	viability, T/C	57.4
C=CC(=O)N1CCN(c2nc(=O)n(-c3c(C)ccnc3C(C)C)c3nc(-c4c(O)cccc4F)c(F)cc23)C(C)C1 (stereo not given) + CC(C)NCC(C(=O)N1CCN(c2ncnc3c2C(C)CC3O)CC1)c1ccc(Cl)cc1	138582-337-R-J1-PDC spheroids with HUVEC/MSC, viability	viability, T/C	115

// next item, viability, T/C requested
Ask: Tell me the measured viability, T/C of Cn1ncc(Cl)c1-c1cc(C(=O)NC(CN)Cc2cccc(F)c2)sc1Cl (stereo not given) + CCN1CCN(Cc2ccc(Nc3ncc(F)c(-c4cc(F)c5nc(C)n(C(C)C)c5c4)n3)nc2)CC1 , please.
Result: 40.7
